These measurements were taken from patent US5529998A.

System: E. coli Neumann
measurement-description: MIC, antibacterial activity (series dilution)
Format: cell-based
conditions-used: Escherichia coli, 37° C., about 20 hours
attribute-measured: MIC

Q) Quick check: MIC on E. coli Neumann, item CC(=O)NC[C@H]1CN(c2ccc3nc(S(=O)(=O)Cc4ccccc4)sc3c2)C(=O)O1 ?
A) > 64 µg/mL

Q) Give recorded MIC with E. coli Neumann for the following molecule: CSc1nc2ccc(N3C[C@H](CNC(C)=O)OC3=O)cc2s1
A) > 64 µg/mL

Q) Tell me reported MIC for CC(=O)NC[C@H]1CN(c2ccc3nc(S(C)(=O)=O)sc3c2)C(=O)O1 , tested with E. coli Neumann.
A) > 64 µg/mL

Q) // fetch E. coli Neumann MIC for CC(=O)NC[C@H]1CN(c2ccc3nc([S+](C)[O-])sc3c2)C(=O)O1 (stereo partly shown)
A) > 64 µg/mL

Q) Hi! What's the reported MIC for CC(=O)NC[C@H]1CN(c2ccc3nc(C)sc3c2)C(=O)O1 on E. coli Neumann?
A) > 64 µg/mL

Q) # query: MIC | item CC(=O)NC[C@H]1CN(c2ccc3nc(C)oc3c2)C(=O)O1 | system: E. coli Neumann
A) > 64 µg/mL

Note: attention shifts to another entry.
Q) Any idea what MIC came out for CC(=O)NC[C@H]1CN(c2ccc3nc([S+]([O-])Cc4ccccc4)sc3c2)C(=O)O1 (stereo partly shown) on E. coli Neumann?
A) > 64 µg/mL

###

In what follows, each item is paired with its log10 of MIC for Staph. 9TV.
Log10 applied to MIC; unit prior to transform: µg/mL.

Q) What measured log10 of MIC goes with CC(=O)NC[C@H]1CN(c2ccc3nc(C)oc3c2)C(=O)O1 [Example 25] ?
A) 0.00

List the reported log10 of MIC of each molecule below.
1. CC(=O)NC[C@H]1CN(c2ccc3nc(S(=O)(=O)Cc4ccccc4)sc3c2)C(=O)O1 [Example 33]
2. CC(=O)NC[C@H]1CN(c2ccc3nc(S(C)(=O)=O)sc3c2)C(=O)O1 [Example 37]
3. CC(=O)NC[C@H]1CN(c2ccc3nc([S+]([O-])Cc4ccccc4)sc3c2)C(=O)O1 (stereo partly shown) [Example 36]
4. CSc1nc2ccc(N3C[C@H](CNC(C)=O)OC3=O)cc2s1 [Example 24]
5. CC(=O)NC[C@H]1CN(c2ccc3nc(C)sc3c2)C(=O)O1 [Example 26]

A)
0.60
0.00
0.30
-0.60
0.00

Q) Given CC(=O)NC[C@H]1CN(c2ccc3nc([S+](C)[O-])sc3c2)C(=O)O1 (stereo partly shown) [Example 32] , state its recorded log10 of MIC.
A) -0.30
